assay type: in vivo, mouse; conditions: Nf1flox/flox;PostnCre, mouse, plasma, po, 15 mg/kg
assay-endpoint: Tmax (h)

                                   compound  assay_endpoint  unit_descriptor  experimental_result
0  COc1cc2nccc(Oc3ccc(NC(=O)C4(C(=O)Nc5ccc(F)cc5)CC4)cc3)c2cc1OC [cabozantinib]            Tmax                h                    2
